biological target: HLA-A*26:01; experiment: IEDB peptide-MHC binding, purified MHC/competitive/radioactivity; filed as Kd, often an IC50 or EC50 that approximates it; bounds were set here for any values at or beyond the usual limits of such assays; conditions: source organism: SARS coronavirus Tor2
pKd: −log10 of the molar value.
Would you mind telling me the reported pKd of each entry?

Use these answered entries as a reference point.
# input Give the reported pKd for LFARTRSMW (system: HLA-A*26:01).
# output ≤ 4.11

# input Request body: readout pKd, system HLA-A*26:01, query FFTYLCGFI . Return the value.
# output ≤ 4.11

# input Field: pKd (HLA-A*26:01). Entry: NYLRKRVMF
# output ≤ 4.22

# input Identify the measured pKd of FFVYENAFL for HLA-A*26:01.
# output ≤ 4.49

# input pKd of AFIDTIKSL on HLA-A*26:01?
# output ≤ 4.47

Turning now to a further record.
# input Short answer please: pKd, HLA-A*26:01, entry GYTMHANYIF
# output ≤ 4.39

----------
Give measured pKd for each item. Keep answers brief.
target: HLA-A*68:01; test: IEDB peptide-MHC binding, purified MHC/competitive/radioactivity; filed as Kd, often an IC50 or EC50 that approximates it; bounds were set here for any values at or beyond the usual limits of such assays; conditions: source organism: Vaccinia virus WR
pKd: −log10 of the molar value.

Examples from the recorded data:
# input I would be grateful if you could share the reported pKd for ISELSRLRY .
# output ≤ 4.64

# input Given the entry KIIETYLGR , report its measured pKd.
# output ≤ 4.11

# input Given the sequence IPYLRNYMVI , what is its reported pKd?
# output ≤ 4.67

---
# input Which pKd value is on record for KSQAKKPEVR ?
# output ≤ 4.15

----------
biological target: HLA-A*29:02; experiment: IEDB peptide-MHC binding, purified MHC/competitive/radioactivity; filed as Kd, often an IC50 or EC50 that approximates it; bounds were set here for any values at or beyond the usual limits of such assays; conditions: source organism: SARS coronavirus Tor2
So I've got a bunch of sequences here, and I need their log10(Kd) values.
log10 Kd, nM

# input What value of measured log10(Kd) is listed for CADGTRHTY ?
# output 2.98

// each sequence listed below needs its log10(Kd)
1. AYSNRNRFL
2. GSIIQFPNTY
3. GYTMHANYIF
4. NYLRKRVMF

# output
1. 3.82
2. 2.66
3. 2.61
4. 3.51

Fill in log10(Kd) for each of the 2 sequences listed.
1. LFARTRSMW
2. LVSTQEFRY

# output
1. 4.01
2. 0.84

# input Look up log10(Kd) for this sequence: FSAVGNICY
# output 0.90

----------
target: HLA-A*11:01; test: IEDB peptide-MHC binding, purified MHC/competitive/radioactivity; filed as Kd, often an IC50 or EC50 that approximates it; bounds were set here for any values at or beyond the usual limits of such assays; conditions: source organism: SARS coronavirus Tor2
Please go through the items and note down their pKd.
Give bare numbers, as −log10 of the molar value.

# input Entry ASCDAIMTR has what pKd?
# output 7.10

// input: 3 sequences below; output: pKd for each
1. VVYRAFDIY
2. EQLQLLMPLK
3. ALSEAREHLK

# output
6.83
6.82
6.85

----------
target: HLA-B*40:01; assay: IEDB peptide-MHC binding, purified MHC/competitive/radioactivity; filed as Kd, often an IC50 or EC50 that approximates it; bounds were set here for any values at or beyond the usual limits of such assays; details: source organism: SARS coronavirus Tor2
Provide the recorded pKd for the entries that follow.
Numbers only, as −log10 of the molar value.

# count of solved cases: 5
# input Query: pKd; subject: EEAALCTFLL
# output 7.36

# input Recorded pKd of REVKTIKVF , please.
# output 6.66

# input Would you kindly share the measured pKd for AEVQIDRLI ?
# output 4.96

# input Looking for the measured pKd of LEDFKPRSQM , can you help?
# output 5.82

# input Given the sequence RERVNINIVG , what is its reported pKd?
# output 5.31

Alright, here's another sequence for you.
# input Quick one: pKd of VEFLKDAWEI ?
# output 6.02

----------
target: HLA-A*11:01; test: IEDB peptide-MHC binding, purified MHC/competitive/fluorescence; bounds were set here for any values at or beyond the usual limits of such assays; conditions: source organism: Zaire ebolavirus
pIC50: −log10 of the molar value.
Quantity Kind: pIC50

Previously resolved entries follow.
# input # get_value(readout='pIC50', item= LSFASLFLP )
# output ≤ 3.75

# input Query (sequence): RFKRTSFFL ; field requested: pIC50
# output ≤ 3.41

---
# input State the recorded pIC50 for this entry: HHAYQGDYK
# output ≤ 4.15

----------
target: HLA-A*03:01; experiment: IEDB peptide-MHC binding, purified MHC/competitive/radioactivity; filed as Kd, often an IC50 or EC50 that approximates it; bounds were set here for any values at or beyond the usual limits of such assays; details: source organism: Vaccinia virus WR
Quantity Kind: Kd (µM)
Numbers only, in µM.

The examples below pair each entry with its known result.
# input Would you mind telling me what Kd value was observed for LIIYYQLAGY ?
# output 0.137

# input I have this sequence here, TSCSKNEAEK , and I need its recorded Kd.
# output 3.8

# input Requested read-out: Kd. Entry: QMAGVEVRY
# output 0.0496

# input # Kd lookup, item ISELSRLRY
# output 6.57

# input Look at this sequence and give its reported Kd. KTNDINVRR
# output 0.112

Batch: Kd for all items listed.
1. LVKESMASLK
2. ETITEKTFK
3. LSSIKSKSR

# output
0.0041
3.06
3.07

----------
molecular target: HLA-A*31:01; test: IEDB peptide-MHC binding, purified MHC/competitive/radioactivity; filed as Kd, often an IC50 or EC50 that approximates it; bounds were set here for any values at or beyond the usual limits of such assays; details: source organism: Vaccinia virus WR
Quantity Kind: Kd

Here is how some sequences turned out for Kd.
# input Look up Kd for this sequence: SAGAGVLDK
# output ≥ 26.6 µM

# input GET /values?readout=Kd&item= KIIETYLGR
# output ≥ 77.9 µM

# input Reported Kd for LFSTSAADIK : what is it?
# output ≥ 70 µM

# input Field request: Kd | item: QMAGVEVRY
# output ≥ 31.2 µM

# input So what's the measured Kd for this one? PIGMQFDKVY
# output ≥ 70 µM

Let's switch to this sequence now.
# input Item under review: DMQKFTILEY . Reported Kd?
# output ≥ 70 µM

----------
molecular target: HLA-A*31:01; test: IEDB peptide-MHC binding, purified MHC/competitive/radioactivity; filed as Kd, often an IC50 or EC50 that approximates it; bounds were set here for any values at or beyond the usual limits of such assays; settings: source organism: SARS coronavirus Tor2
# label = bin(measured Kd), where bins are class 1 (below 90 nM), class 2 (90 nM to below 2000 nM), class 3 (2000 nM or more)

# input Lab note: sort EQLQLLMPLK into the matching Kd band.
# output class 3

# input Hey, which category is KLSAGVEFLK in, do you know?
# output class 2

# input Entry VVYRAFDIY belongs to which category?
# output class 3

New cases:
# input Textbook exercise: identify the category of the sequence given here, TLLPLTQYNR , according to its measured value.
# output class 2

# input Which class holds FTTSLSLHK ?
# output class 3

# input State the class of the sequence shown: ALCTLLHLHR
# output class 1

# input Band for the recorded Kd of RQFHQKLLK ?
# output class 1

# input Any idea which band AAYYFMKFR is in?
# output class 1

# input Form field 'band' for ALSEAREHLK
# output class 3

----------
biological target: HLA-A*02:06; test: IEDB peptide-MHC binding, purified MHC/competitive/radioactivity; filed as Kd, often an IC50 or EC50 that approximates it; bounds were set here for any values at or beyond the usual limits of such assays; settings: source organism: Vaccinia virus WR
pKd: −log10 of the molar value.
Please respond with reported pKd for every item in the list.

Use the examples below as a reference point.
# input Would you mind telling me what pKd value was observed for QAKKPEVRI ?
# output ≤ 4.38

# input Recorded pKd of IPYLRNYMVI , please.
# output ≤ 4.16

# input Given the entry PTSETMYLT , report its measured pKd.
# output ≤ 4.11

---
# input Could you tell me which pKd is on file for KAMHDKKIDI ?
# output ≤ 4.58

----------
molecular target: HLA-A*11:01; assay: IEDB peptide-MHC binding, purified MHC/competitive/radioactivity; filed as Kd, often an IC50 or EC50 that approximates it; bounds were set here for any values at or beyond the usual limits of such assays; settings: source organism: Vaccinia virus WR
Quantity Kind: pKd
One number for each entry, as −log10 of the molar value.

# input Write down the reported pKd of ISIIVLFQR , test system: HLA-A*11:01.
# output 6.03

# input Could you share what pKd was measured for ISQFSYKELY , tested on HLA-A*11:01?
# output 5.90

# input Under HLA-A*11:01: pKd value of IPYLRNYMVI ?
# output 5.99

Value sought for every listed sequence: pKd.
1. TVVRDFENY
2. KTYIDVNEEY

# output
1. 5.92
2. 6.11
